# tgt: recombinant CK2A2 (Homo sapiens (Human), UniProt P19784)
# Sequence (P19784 whole entry): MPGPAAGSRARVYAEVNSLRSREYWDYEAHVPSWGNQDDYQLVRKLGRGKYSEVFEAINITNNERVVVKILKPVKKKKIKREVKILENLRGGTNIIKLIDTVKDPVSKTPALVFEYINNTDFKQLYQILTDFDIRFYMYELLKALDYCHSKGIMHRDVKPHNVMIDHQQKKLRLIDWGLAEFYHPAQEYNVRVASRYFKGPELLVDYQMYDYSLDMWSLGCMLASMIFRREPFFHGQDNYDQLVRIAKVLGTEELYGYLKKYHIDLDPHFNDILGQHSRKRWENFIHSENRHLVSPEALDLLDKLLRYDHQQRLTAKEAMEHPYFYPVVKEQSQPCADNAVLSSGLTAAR
# procedure_summary: CK2 kinase assay (CK2A2)
# applied_conditions: Table B, comparison compound of WO 2007/038314 / US 2008/0045536
measure: IC50 (nM)
Write the number in nM without appending the unit.

Exercise: Record request: IC50 value, item CCOc1ccc(Nc2nc(N[C@H]3CC[C@@H](N)CC3)nn3ccnc23)cc1 [XIII]
Key: 331

====

# tgt: recombinant CK2A1 (Homo sapiens (Human), UniProt P68400)
# Sequence (P68400 whole entry): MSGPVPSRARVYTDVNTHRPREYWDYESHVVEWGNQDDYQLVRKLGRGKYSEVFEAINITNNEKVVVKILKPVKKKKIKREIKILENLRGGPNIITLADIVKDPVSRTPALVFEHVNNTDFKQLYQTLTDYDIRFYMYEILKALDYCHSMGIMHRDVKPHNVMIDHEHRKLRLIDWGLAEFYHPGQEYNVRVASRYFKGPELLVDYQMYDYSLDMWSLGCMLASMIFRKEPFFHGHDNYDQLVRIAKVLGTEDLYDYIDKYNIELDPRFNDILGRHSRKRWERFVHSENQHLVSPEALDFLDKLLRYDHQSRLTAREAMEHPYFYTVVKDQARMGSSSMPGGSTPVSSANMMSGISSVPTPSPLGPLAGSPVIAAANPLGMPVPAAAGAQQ
# procedure_summary: CK2 kinase assay (CK2A1)
# applied_conditions: Table B, comparison compound of WO 2007/038314 / US 2008/0045536
measure: IC50 (nM)
Write the number in nM without appending the unit.

Exercise: Record request: IC50 value, item CCOc1ccc(Nc2nc(N[C@H]3CC[C@@H](N)CC3)nn3ccnc23)cc1 [XIII]
Key: 1800
